SYSTEM_NAME: Inadl_2, Q8NI35
Sequence (Q8NI35 238-335): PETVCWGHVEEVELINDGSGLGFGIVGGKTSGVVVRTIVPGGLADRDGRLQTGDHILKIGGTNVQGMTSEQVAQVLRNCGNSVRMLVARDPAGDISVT
METHOD: holdup assay
Set-up: key: below the threshold = too weak to quantify, mostly under pKd 3.1 to 4
EXPERIMENTAL_SETUP: plain residues with an end cap or a label only (N-terminal biotin on a linker: ado-ado)
ASSAY_METRIC: pKd

[[record]]
binder = "PKSNSSKEYV [CLDN7, O95471]"
measured_value = "below the threshold"

[[record]]
binder = "VISSDDLTEL [CAPN6, Q9Y6Q1]"
measured_value = "below the threshold"

[[record]]
binder = "EFKQTSSFLV [JAM1, Q9Y624]"
measured_value = 3.56

[[record]]
binder = "THHRKIHTRV [ZNF599, Q96NL3]"
measured_value = "below the threshold"

[[record]]
binder = "ATKDKKITTV [EXOC4, Q96A65]"
measured_value = 3.51

[[record]]
binder = "ELKAEDEVQI [DCHS2, Q6V1P9]"
measured_value = "below the threshold"

[[record]]
binder = "PDSYHRRDFW [U2AF2, P26368]"
measured_value = "below the threshold"

[[record]]
binder = "NISARRFTLC [FAM167B, Q9BTA0]"
measured_value = "below the threshold"

